Hey, just so you know, these numbers are from patent US8969565B2.

Biological target: AAK1 (Homo sapiens)
Construct: HA; expressed in transfected cells; host or cells: HEK293F
Sequence (Q2M2I8 1-863 isoform Q2M2I8-2): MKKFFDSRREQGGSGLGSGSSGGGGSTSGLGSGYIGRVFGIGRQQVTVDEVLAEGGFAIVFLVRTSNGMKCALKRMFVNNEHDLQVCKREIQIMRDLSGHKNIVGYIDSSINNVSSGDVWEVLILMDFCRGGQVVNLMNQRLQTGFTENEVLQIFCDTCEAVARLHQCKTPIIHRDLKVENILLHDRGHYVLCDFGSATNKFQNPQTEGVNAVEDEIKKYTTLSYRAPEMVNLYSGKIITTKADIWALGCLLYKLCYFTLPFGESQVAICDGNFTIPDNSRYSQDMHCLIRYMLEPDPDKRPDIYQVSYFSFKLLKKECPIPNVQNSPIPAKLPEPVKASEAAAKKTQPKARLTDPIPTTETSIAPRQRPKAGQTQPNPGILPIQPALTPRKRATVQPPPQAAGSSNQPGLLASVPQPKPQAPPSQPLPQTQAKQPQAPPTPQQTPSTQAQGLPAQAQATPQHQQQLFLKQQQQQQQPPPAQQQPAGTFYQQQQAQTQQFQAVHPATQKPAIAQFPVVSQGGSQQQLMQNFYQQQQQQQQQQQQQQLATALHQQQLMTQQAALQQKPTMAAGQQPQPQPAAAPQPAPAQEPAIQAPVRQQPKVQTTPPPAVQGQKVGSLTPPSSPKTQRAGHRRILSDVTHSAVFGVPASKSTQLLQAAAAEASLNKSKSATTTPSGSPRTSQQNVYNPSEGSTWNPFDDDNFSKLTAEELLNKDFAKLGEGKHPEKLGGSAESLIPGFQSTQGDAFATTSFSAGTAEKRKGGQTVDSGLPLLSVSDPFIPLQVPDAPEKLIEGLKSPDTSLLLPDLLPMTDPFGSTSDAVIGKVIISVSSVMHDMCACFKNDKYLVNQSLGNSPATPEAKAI
Assay: HEK281 cell-based assay (phospho-mu2 Western blot in transfected HEK293F cells)
Conditions: 3 hours incubation, read-out: CBA IC50
observation-type: IC50

// solved cases for IC50 follow
INSERT INTO measurements (compound, result) VALUES
  ('NCc1ccc(-c2cnc3ccc(NCCCCc4ccccc4)nn23)cc1', '≤ 100 nM'),
  ('COc1cnccc1-c1cnc2ccc(NCCN(C(=O)OCC(C)C)C(C)C)nn12', '≤ 100 nM'),
  ('COc1cnccc1-c1cnc2ccc(NC[C@@H]3CCCCN3C(=O)OC(C)(C)C)nn12', '≤ 100 nM'),
  ('O=C(N1CCCC1)N1CCN(c2ccc3ncc(-c4ccccc4)n3n2)CC1', '≤ 1000 nM'),
  ('COc1cccc(-c2cnc3ccc(N4CCN(C(=O)OC(C)C)CC4)nn23)c1', '≤ 100 nM');

**Query** Enter reported IC50 observed with AAK1 (Homo sapiens) for CC(C)OCCNc1ccc2ncc(-c3ccc(CN)cc3)n2n1
**Result** ≤ 100 nM

**Query** Enter reported IC50 observed with AAK1 (Homo sapiens) for COc1ccc(F)cc1-c1cnc2ccc(NCCN(C(=O)OC(C)C)C(C)C)nn12
**Result** ≤ 100 nM

**Query** Enter reported IC50 observed with AAK1 (Homo sapiens) for CC(C)(C)CCNc1ccc2ncc(-c3ccc(COCCN)cc3)n2n1
**Result** ≤ 100 nM

**Query** Enter reported IC50 observed with AAK1 (Homo sapiens) for CCCCNc1ccc2ncc(-c3ccc(C(=O)NCCN)cc3F)n2n1
**Result** ≤ 1000 nM

**Query** Enter reported IC50 observed with AAK1 (Homo sapiens) for CC(C)(C)OC(=O)N1CCC[C@H]1CNc1ccc2ncc(I)n2n1
**Result** ≤ 10 nM
